measuredOn: T1, human C1s (human, UniProt P09871 16-688)
T1 construct: Analyte in the Biacore assays; also called hC1s; serum-derived human C1s (CompTech)
T1 sequence: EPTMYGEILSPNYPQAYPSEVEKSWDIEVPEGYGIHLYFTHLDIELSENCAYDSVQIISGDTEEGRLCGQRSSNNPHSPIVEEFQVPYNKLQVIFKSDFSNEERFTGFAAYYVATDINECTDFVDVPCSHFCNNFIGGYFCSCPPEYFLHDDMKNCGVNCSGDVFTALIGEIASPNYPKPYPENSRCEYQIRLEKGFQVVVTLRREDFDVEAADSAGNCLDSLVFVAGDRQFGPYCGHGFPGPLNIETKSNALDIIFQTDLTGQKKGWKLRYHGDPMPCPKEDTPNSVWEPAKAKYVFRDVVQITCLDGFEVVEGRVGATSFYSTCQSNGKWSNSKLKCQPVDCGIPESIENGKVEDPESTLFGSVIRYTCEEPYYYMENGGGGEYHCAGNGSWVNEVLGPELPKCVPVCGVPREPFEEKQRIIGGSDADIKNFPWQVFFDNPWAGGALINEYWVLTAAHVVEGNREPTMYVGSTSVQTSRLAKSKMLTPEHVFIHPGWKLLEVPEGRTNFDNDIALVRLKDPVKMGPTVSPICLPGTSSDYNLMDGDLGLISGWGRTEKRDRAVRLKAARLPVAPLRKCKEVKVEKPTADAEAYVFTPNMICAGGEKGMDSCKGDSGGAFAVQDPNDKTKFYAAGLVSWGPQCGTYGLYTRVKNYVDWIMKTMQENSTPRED
assayName: SPR (Biacore T200, 37C), Ab captured on protein A/G; pH 5.8, 3 uM Ca
# key: entry, value: koff
endpoint: koff (s⁻¹)

binder="C1_IPN92H0282-SG4GK/IPN93L0091-SK1 (antibody, human IgG4 S228P, kappa, name in Kabat numbering, V domains shown, Substitutions from IPN009VH2 / IPN009VK3, Kabat numbering; also called IPN92H0282/IPN93L0091) VH: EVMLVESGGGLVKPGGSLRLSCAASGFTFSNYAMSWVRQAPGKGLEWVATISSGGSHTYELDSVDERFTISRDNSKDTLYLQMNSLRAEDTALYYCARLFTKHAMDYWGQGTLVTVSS VL: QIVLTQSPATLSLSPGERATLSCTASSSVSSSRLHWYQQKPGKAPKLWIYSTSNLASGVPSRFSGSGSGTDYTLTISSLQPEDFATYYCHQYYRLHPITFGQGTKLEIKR" endpoint=koff readoutunits=s⁻¹ reading=0.00148
binder="C1_IPN92H0279-SG4GK/IPN93L0091-SK1 (antibody, human IgG4 S228P, kappa, name in Kabat numbering, V domains shown, Substitutions from IPN009VH2 / IPN009VK3, Kabat numbering; also called IPN92H0279/IPN93L0091) VH: EVMLVESGGGLVKPGGSLRLSCAASGFTFSNYAMSWVRQAPGKGLEWVATISSGGSHTYELDSVKERFTISRDNSKDTLYLQMNSLRAEDTALYYCARLFTKHAMDYWGQGTLVTVSS VL: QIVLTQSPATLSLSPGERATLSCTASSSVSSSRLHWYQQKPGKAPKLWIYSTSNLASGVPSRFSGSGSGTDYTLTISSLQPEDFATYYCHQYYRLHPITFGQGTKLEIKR" endpoint=koff readoutunits=s⁻¹ reading=0.00611
binder="C1_IPN92H0281-SG4GK/IPN93L0091-SK1 (antibody, human IgG4 S228P, kappa, name in Kabat numbering, V domains shown, Substitutions from IPN009VH2 / IPN009VK3, Kabat numbering; also called IPN92H0281/IPN93L0091) VH: EVMLVESGGGLVKPGGSLRLSCAASGFTFSNYAMSWVRQAPGKGLEWVATISSGGSKTYELDSVDERFTISRDNSKDTLYLQMNSLRAEDTALYYCARLFTKHAMDYWGQGTLVTVSS VL: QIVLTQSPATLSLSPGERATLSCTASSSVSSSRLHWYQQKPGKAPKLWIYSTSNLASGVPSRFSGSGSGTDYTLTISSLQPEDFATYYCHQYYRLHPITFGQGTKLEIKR" endpoint=koff readoutunits=s⁻¹ reading=0.00227
binder="C1_IPN92H0033-SG4GK/IPN93L0090-SK1 (antibody, human IgG4 S228P, kappa, name in Kabat numbering, V domains shown, VL substitutions from IPN009VK3, Kabat numbering; also called IPN92H0033/IPN93L0090) VH: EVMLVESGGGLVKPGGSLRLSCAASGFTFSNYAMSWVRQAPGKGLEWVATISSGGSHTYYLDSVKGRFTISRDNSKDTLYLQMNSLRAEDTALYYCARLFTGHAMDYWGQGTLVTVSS VL: QIVLTQSPATLSLSPGERATLSCTASSSVSSSKLHWYQQKPGKAPKLWIYSTSNLASGVPSRFSGSGSGTDYTLTISSLQPEDFATYYCHQYYRLHPITFGQGTKLEIKR" endpoint=koff readoutunits=s⁻¹ reading=0.00427
binder="C1_IPN92H0261-SG4GK/IPN93L0091-SK1 (antibody, human IgG4 S228P, kappa, name in Kabat numbering, V domains shown, Substitutions from IPN009VH2 / IPN009VK3, Kabat numbering; also called IPN92H0261/IPN93L0091) VH: EVMLVESGGGLVKPGGSLRLSCAASGFTFSNYAMSWVRQAPGKGLEWVATISSGGSHTYELDSVKGRFTISRDNSKDTLYLQMNSLRAEDTALYYCARLFTKHAMDYWGQGTLVTVSS VL: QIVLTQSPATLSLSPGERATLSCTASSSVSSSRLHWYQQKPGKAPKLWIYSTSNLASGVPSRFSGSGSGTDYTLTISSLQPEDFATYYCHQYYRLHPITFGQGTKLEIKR" endpoint=koff readoutunits=s⁻¹ reading=0.00736

Source listed as patent US20210032365A1.
